Consider the following molecules and their measured MIC readings.
# Tested on: Pseudomonas aeruginosa
# test protocol: Antibacterial activity against Pseudomonas aeruginosa ATCC 27853 assessed as inhibition of bacterial growth measured after 18 hrs by resazurin dye based analysis
# Type: functional

Examples with answers:
# line notation, MIC
records = [
    ("C[C@]1(C(=O)NCCCNCCCCCCCCCCCCN)CCC[C@]2(C)c3cc(OC(=O)NCCCNCCCCCCCCCCCCN)ccc3CC[C@@H]12.O=C(O)C(F)(F)F.O=C(O)C(F)(F)F.O=C(O)C(F)(F)F.O=C(O)C(F)(F)F", "> 25.5 µM"),
    ("C[C@]1(C(=O)NCCCNCCCCN)CCC[C@]2(C)c3cc(O)ccc3CC[C@@H]12", "> 50.8 µM"),
    ("C[C@]1(C(=O)O)CCC[C@]2(C)c3cc(OC(=O)CCCNCCCCCCCCCCNCCCNC(=O)Oc4ccc5c(c4)[C@@]4(C)CCC[C@](C)(C(=O)O)[C@@H]4CC5)ccc3CC[C@@H]12.O=C(O)C(F)(F)F.O=C(O)C(F)(F)F", "> 28.7 µM"),
    ("C[C@]1(C(=O)NCCCNCCCCCCCCCCNCCCNC(=O)[C@@]2(C)CCC[C@]3(C)c4cc(O)ccc4CC[C@@H]23)CCC[C@]2(C)c3cc(O)ccc3CC[C@@H]12.O=C(O)C(F)(F)F.O=C(O)C(F)(F)F", "> 31.1 µM"),
]

Exercise: Given C[C@]1(C(=O)O)CCC[C@]2(C)c3cc(OC(=O)NCCCNCCCCCCCCCCN)ccc3CC[C@@H]12 , state its recorded MIC.
Key: > 42.2 µM
